Source listed as PubChem BioAssay.

Test: TLR3 IRF3 reporter activation blockers – cell-based, poly I:C stimulus, luciferase, 10K MLSCN set, primary screen (AID 602277)
Conditions: HEK293-TLR3 RL24 IRF3 luciferase reporter, at 10 µM, stronger effect = higher value
Please note: Satisfied applies when inhibition is -10% or greater, and Not satisfied applies otherwise.

Check out these entries, answers already filled in.
| molecule | group-label |
| --- | --- |
| CCN(CC)c1ccc(NC(=O)c2cncc(Br)c2)cc1 | Not satisfied |
| O=C(CCSc1ccccc1)N1CCOCC1 | Not satisfied |

-- ask Hi team, for CCc1n[nH]c2c1C(=O)CC(C)(C)C2 , is the recorded inhibition at or above -10%?
-- reply Satisfied

-- ask // next record Cc1cccc(C(=O)N(C)c2nnc(-c3ccncc3)s2)c1
-- reply Not satisfied

-- ask Follow-up item: CCOC(=O)C1C(=O)N(C(=O)c2ccc(OC)cc2)CC1c1ccccc1 (stereo not drawn)
-- reply Satisfied

-- ask Continue with O=C(CCn1[nH]c(=O)c2ccccc2c1=O)NCCO
-- reply Satisfied

-- ask Now consider CC(C)(C)OC(=O)N1CCN(c2ccc(NC(=O)c3cc4ccccc4oc3=O)cc2)CC1 .
-- reply Not satisfied

-- ask Also need CCc1ccccc1NC(=O)C(CC)Sc1nc2cc3c(cc2c(=O)n1Cc1ccco1)OCO3 (stereo not drawn) , thanks.
-- reply Satisfied

====

inhibition by entry:
Assay: inhibitors of TNFa-induced NFkB p65 translocation, primary screen, imaging, HUVEC, MLSMR starter and 10KST1 sets (AID 438);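 note: compound added about 3h40 before a 20 min TNFalpha stimulation; signal is the nuclear over cytoplasmic p65 intensity ratio per well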
Conditions: HUVEC TNFa-induced p65 nuclear translocation; at 2 µM, stronger effect = higher value, 0% TNFa-plus-vehicle, 100% no-TNFa wells
Give just the numeric value; % need not be written.

// known answers, use as guide
| compound | value-type | value-reported |
| --- | --- | --- |
| Cc1cc(-c2ccccc2)nc2cc(C(=O)NCCCn3ccnc3)nn12 | inhibition | 6.4 |
| O=C(CSc1nnc(-c2ccco2)n1CC1CCCO1)N1CCCCC1 (stereo not given) | inhibition | 1.4 |
| CC1(C)C2CCC1(C)C(OC(=O)CSc1nc(N)cc(=O)[nH]1)C2 (stereo not given) | inhibition | 6.5 |
| CN(Cc1cccs1)CC(O)COCc1ccco1 (stereo not given) | inhibition | 6 |

-- ask Which value of inhibition has been reported for C=C(C)Cn1c(CCCNC(=O)C(C)(C)C)nc2ccccc21 in the records?
-- reply -19.6

-- ask Entry to check: CCOC(=O)N1CCN(C(=O)CN(Cc2ccccc2)S(=O)(=O)c2ccc(OC)c(C)c2)CC1
-- reply -2.3

-- ask Next compound up: CCOc1ccc(C(=O)Nc2cc(C)on2)cc1OCC
-- reply -2.3

====

Each entry below lists one item and its recorded nuclei count value.
Assay: endothelial E-selectin expression blockers – imaging, HUVEC, immunofluorescence, MLSMR starter and 10KST1 sets, primary screen (AID 487);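 note: 100% = median nuclei count of all wells on the same plate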
Details: HUVEC TNFalpha-induced E-selectin immunofluorescence imaging, at 2 µM; measured here: cell number, toxicity
Only the number, expressed in %, is required.

Some compounds with recorded nuclei count:
| compound | nuclei count (%) |
| --- | --- |
| COc1ccc(N(CC(=O)Nc2ccc3c(c2)OCCO3)S(=O)(=O)c2cccnc2)cc1 | 122 |
| COC(=O)Cc1cc(=O)n(-c2ccccc2)[nH]1 | 111 |
| COC(=O)c1cnn2c(C(F)(F)F)cc(-c3ccco3)nc12 | 72.5 |

-- ask What nuclei count value was documented for this compound, CCCCOC(=O)C1=C(C)Nc2ncnn2C1c1cccc(OC)c1OC (stereo not drawn) ?
-- reply 111

-- ask Do the same for C=CCSc1nnc(-c2ccc(Cl)cc2Cl)o1 please
-- reply 88.4

-- ask What do we get for CCOc1ccccc1N1CCN(S(=O)(=O)c2cccc3nsnc23)CC1 ?
-- reply 106

-- ask Same for CCCC(=O)n1nc(-c2ccc(OC)cc2)nc1N
-- reply 77

-- ask Param item: CCOc1ccc(N(C(C)C(=O)NC2CCCCCC2)S(C)(=O)=O)cc1 (stereo not drawn)
-- reply 107

-- ask Another: C1=C(CCNc2ncnc3c2cnn3-c2ccccc2)CCCC1
-- reply 124

-- ask And the next one, CCN(C(=O)c1c(-c2ccccc2)noc1C)c1ccccc1 ?
-- reply 95.6

-- ask What would you report for CCCNC(=O)c1c(N)n(-c2cc(OC)cc(OC)c2)c2nc3ccccc3nc12 ?
-- reply 135

-- ask Param item: O=C(Nc1cc(C(F)(F)F)ccc1Cl)C1CCN(c2nnc(-n3cccc3)s2)CC1
-- reply 126

-- ask Entry to check: CC(=O)Nc1c(O)n(C)c2ccccc12
-- reply 100
